The origin of these recorded values is PubChem BioAssay.

- system_name: Follistatin-related protein 3 (Homo sapiens) (UniProt O95633)
- Sequence (O95633 whole entry, looked up): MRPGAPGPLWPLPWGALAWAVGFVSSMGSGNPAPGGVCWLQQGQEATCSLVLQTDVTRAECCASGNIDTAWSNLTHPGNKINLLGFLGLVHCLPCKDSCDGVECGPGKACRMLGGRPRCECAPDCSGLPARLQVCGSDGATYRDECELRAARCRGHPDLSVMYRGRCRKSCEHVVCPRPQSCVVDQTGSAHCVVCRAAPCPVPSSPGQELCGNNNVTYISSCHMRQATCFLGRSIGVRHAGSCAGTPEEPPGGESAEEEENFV
- assay_info: FSTL3 binders on small-molecule microarrays, primary screen, biochemical, small-molecule microarray, 635 nm fluorescence (AID 1105);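 further: score merges emission near 667 nm and signal to noise per printed spot across three slides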
- particulars: FSTL3 binding, higher = more signal
measured_metric: composite z-score
The reply should be a number, written without any unit.

Q: Request the reported composite z-score associated with CC(C)CCC[C@@H](C)[C@H]1CC[C@@]2(C)C3=C(CC[C@]12C)[C@@]1(C)CC[C@H](OC(=O)c2ccccc2)C(C)(C)C1CC3 (stereo partly drawn)
Ans: 0.429

Q: Request the reported composite z-score associated with "CC(C)C[C@@H]1NC(=O)[C@@H]2C[C@H](C(=O)NCCCCCC[N+](C)(C)C)[C@H](c3cccc(OCCO)c3)N2C1=O"
Ans: -0.168

Q: Request the reported composite z-score associated with "NC(=O)[C@@H]1[C@H]2C(=O)O[C@H](c3ccccc3)[C@H](c3ccccc3)N2[C@H](c2ccc(OCCO)cc2)[C@@]12C(=O)Nc1ccc(C#CCCO)cc12"
Ans: -0.12

---

- assay_info: binders of probe aFGF10 on microarray, primary screen, stem cell growth factor project, biochemical, small-molecule microarray, fluorescence 635/667 (AID 1071);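 further: score merges 667 nm spot intensity and signal to noise from triplicate slides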
- particulars: higher = more signal
The label depends only on composite z-score: fulfilled if it is at least 0.1, not fulfilled if it is smaller.

Q: Check the entry CCCCCCCCCCC(O)C1C=CC2C(=O)N(c3ccccc3)C(=O)C2N1Nc1ccccc1F (stereo not drawn) : does composite z-score equal or exceed 0.1?
Ans: fulfilled

Q: Check the entry CCOC(=O)C1=CCC(c2ccccc2)N(S(=O)(=O)c2ccc([N+](=O)[O-])cc2)C1 (stereo not drawn) : does composite z-score equal or exceed 0.1?
Ans: fulfilled

Q: Check the entry COc1cc(NN2C(C(O)c3cc(OC)c(OC)c(OC)c3)C=CC3C(=O)N(c4ccccc4)C(=O)C32)cc(OC)c1OC (stereo not drawn) : does composite z-score equal or exceed 0.1?
Ans: fulfilled

Q: Check the entry "NC(=O)[C@H]1[C@@H]2C(=O)O[C@@H](c3ccccc3)[C@@H](c3ccccc3)N2[C@@H](c2ccc(O)cc2)[C@]12C(=O)Nc1ccccc12" : does composite z-score equal or exceed 0.1?
Ans: not fulfilled

Q: Check the entry "COc1ccc(C(=O)Nc2cccc(CN3C(=O)[C@@]4(O[C@@H](CC(=O)N(CCO)Cc5ccccc5)[C@H]([Si](C)(C)c5ccc(OC)cc5)[C@H]4C)c4ccccc43)c2)cc1" : does composite z-score equal or exceed 0.1?
Ans: not fulfilled

Q: Check the entry "COCCOC(=O)N1C(=O)[C@@]2(c3cc(C#CCCO)ccc31)[C@H](C(N)=O)[C@H]1C(=O)O[C@H](c3ccccc3)[C@H](c3ccccc3)N1[C@@H]2c1ccc(OCCO)cc1" : does composite z-score equal or exceed 0.1?
Ans: fulfilled

Q: Check the entry Cc1ccccc1C(O)C1C=CC2C(=O)N(c3ccccc3)C(=O)C2N1Nc1ccc([N+](=O)[O-])cc1 (stereo not drawn) : does composite z-score equal or exceed 0.1?
Ans: fulfilled

Q: Check the entry C=CCC(OC(C)=O)[C@@H]1[C@@H](N(Cc2cccc3ccccc23)C(=O)Cc2ccc(F)cc2)c2cc(OCCCO)ccc2N1C(=O)c1ccc(-c2ccccc2)cc1 (stereo partly drawn) : does composite z-score equal or exceed 0.1?
Ans: not fulfilled

Q: Check the entry "O=C1O[C@H](c2ccccc2)[C@H](c2ccccc2)N2[C@H]1[C@@H](C(=O)O)[C@]1(C(=O)Nc3ccc(C#CC4(O)CCCCCC4)cc31)[C@H]2c1ccc(O)cc1" : does composite z-score equal or exceed 0.1?
Ans: fulfilled

Q: Check the entry CCCCCCCCCCC(O)C1C=CC2C(=O)N(C)C(=O)C2N1Nc1cc(OC)c(OC)c(OC)c1 (stereo not drawn) : does composite z-score equal or exceed 0.1?
Ans: not fulfilled

Q: Check the entry "CC(C)C(=C=CC[C@H](O)c1cccc(OCCO)c1)CCO" : does composite z-score equal or exceed 0.1?
Ans: not fulfilled

Q: Check the entry "COc1ccc(C#Cc2ccc3c(c2)[C@]2(C(=O)N3)[C@H](C(=O)Nc3nc4ccccc4s3)[C@H]3C(=O)O[C@H](c4ccccc4)[C@H](c4ccccc4)N3[C@@H]2c2ccccc2OCCO)cc1" : does composite z-score equal or exceed 0.1?
Ans: fulfilled

Q: Check the entry "NC(=O)NCC#Cc1ccc2c(c1)[C@]1(C(=O)N2)[C@H](C(=O)N2CCN(c3ncccn3)CC2)[C@H]2C(=O)O[C@H](c3ccccc3)[C@H](c3ccccc3)N2[C@@H]1c1ccc(OCCO)cc1" : does composite z-score equal or exceed 0.1?
Ans: fulfilled

Q: Check the entry "COCC(=C=CC[C@@H](O)c1ccc(OCCO)cc1)CCO" : does composite z-score equal or exceed 0.1?
Ans: fulfilled

Q: Check the entry "COCC(=C=CC[C@H](O)c1cccc(OCCO)c1)C[C@H](O)COCc1ccccc1" : does composite z-score equal or exceed 0.1?
Ans: fulfilled

Q: Check the entry "[N-]=[N+]=NCc1ccccc1[C@H]1OC(c2ccc(OCCCO)cc2)=N[C@@]1(CCS(=O)(=O)c1ccccc1)C(=O)NCc1ccccc1" : does composite z-score equal or exceed 0.1?
Ans: fulfilled

Q: Check the entry "COCCOC(=O)N1C(=O)[C@@]2(c3cc(C#CC4=CCCCC4)ccc31)[C@H](c1ccc(O)cc1)N1[C@H](c3ccccc3)[C@H](c3ccccc3)OC(=O)[C@H]1[C@@H]2C(=O)NC[C@H](O)c1ccccc1" : does composite z-score equal or exceed 0.1?
Ans: fulfilled

Q: Check the entry "Cc1nc2cc(Br)ccc2c(=O)n1Cc1cccc(O)c1" : does composite z-score equal or exceed 0.1?
Ans: fulfilled

Q: Check the entry C=CCC(OC(C)=O)[C@@H]1[C@@H](N(Cc2cccc3ccccc23)C(=O)c2ccc(-c3ccccc3)cc2)c2cc(OCCCO)ccc2N1C(=O)c1ccc(-c2ccccc2)cc1 (stereo partly drawn) : does composite z-score equal or exceed 0.1?
Ans: not fulfilled

Q: Check the entry COC(=O)C1=CC(CCCO)=CC(C)N(Cc2cccc(OC(F)(F)F)c2)C=C1C(=O)OC (stereo not drawn) : does composite z-score equal or exceed 0.1?
Ans: fulfilled

Q: Check the entry CCOC(=O)C1=CCC(c2ccco2)N(S(=O)(=O)c2ccc(C)cc2)C1 (stereo not drawn) : does composite z-score equal or exceed 0.1?
Ans: fulfilled

Q: Check the entry "CCOC(=O)C1=C[C@@H](C(C)(C)C)N(S(=O)(=O)c2ccc(C)cc2)[C@H]1c1ccccc1" : does composite z-score equal or exceed 0.1?
Ans: fulfilled

Q: Check the entry "CCOC(=O)C[C@H]1[C@H](OC(=O)c2ccc(-c3ccccc3)cc2)[C@@H](NC(=O)CC(C)C)c2cc(OCCCO)ccc2N1C(=O)c1ccccc1" : does composite z-score equal or exceed 0.1?
Ans: fulfilled

Q: Check the entry "CC(C)[Si]1(C(C)C)OCc2cc(-c3ccc(-c4ccc(Cl)c(Cl)c4)o3)nc(CCc3ccccc3)c21" : does composite z-score equal or exceed 0.1?
Ans: not fulfilled

Q: Check the entry "CC(=O)NCCCC[C@@H]1NC(=O)[C@@H]2C[C@H](C(=O)NCCCCCCN)[C@H](c3cccc(OCCO)c3)N2C1=O" : does composite z-score equal or exceed 0.1?
Ans: fulfilled

Q: Check the entry NC(=O)N1C(=O)C2C(C1=O)C1C=C(CCCO)C2C(C2CC2)N1Cc1cccc(OC(F)(F)F)c1 (stereo not drawn) : does composite z-score equal or exceed 0.1?
Ans: not fulfilled

Q: Check the entry "[N-]=[N+]=NCc1ccccc1[C@@H]1OC(c2ccc(OCCCO)cc2)=N[C@]1(Cc1ccccc1N=[N+]=[N-])C(=O)N1CCCCC1" : does composite z-score equal or exceed 0.1?
Ans: fulfilled

---

- Tested on: PRMT1 (protein arginine N-methyltransferase 1)
- assay_info: PRMT1 binders on small-molecule microarrays, primary screen, biochemical, small-molecule microarray, 635 nm fluorescence (AID 1088);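 further: binding of Prmt1 protein to compounds spotted on small-molecule microarray slides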
- particulars: small-molecule microarray binding, higher = more signal
Give composite z-score for every item shown.
The reply should be a number, written without any unit.

Q: Request the reported composite z-score associated with COc1cc2c(cc1O)C(c1ccc(CN3CCCC3)cc1)N(C)CC2 (stereo not drawn)
Ans: -1.16

Q: Request the reported composite z-score associated with O=C1C2C=CC(C(O)c3cccc(O)c3)N(Nc3ccccc3)C2C(=O)N1c1ccccc1 (stereo not drawn)
Ans: -0.413

Q: Request the reported composite z-score associated with "C=C(/C(=C/C[C@H](OC(=O)c1ccncc1)c1ccccc1OCCO)c1cnc2ccccc2c1)C(C)C"
Ans: 1.54

Q: Request the reported composite z-score associated with "COCCOC(=O)N1C(=O)[C@@]2(c3cc(C#CCNC(N)=O)ccc31)[C@H](c1ccc(O)cc1)N1[C@H](c3ccccc3)[C@H](c3ccccc3)OC(=O)[C@H]1[C@@H]2C(N)=O"
Ans: -1.22

Q: Request the reported composite z-score associated with "CN1C(=O)[C@@]2(Cc3ccccc3)N=C(c3ccc(OCCCO)cc3)O[C@H]2c2ccccc21"
Ans: 1.56

Q: Request the reported composite z-score associated with "[N-]=[N+]=NCc1ccccc1[C@H]1OC(c2ccc(OCCCO)cc2)=N[C@@]1(Cc1ccccc1)C(=O)NCCN1CCOCC1"
Ans: 1.53

Q: Request the reported composite z-score associated with "[N-]=[N+]=Nc1ccccc1C[C@]1(C(=O)NCc2ccccc2)COC(c2ccc(OCCCO)cc2)=N1"
Ans: 1.32

Q: Request the reported composite z-score associated with "O=C1c2ccccc2[C@](Cc2ccccc2I)(C(=O)NC2CC2)[C@H](c2ccc(CO)cc2)N1Cc1ccccc1C(F)(F)F"
Ans: 1.55
